All figures here come from ChEMBL document CHEMBL5321287.

molecular target: Serine/threonine-protein kinase 16 (Homo sapiens)
Sequence (O75716 whole entry): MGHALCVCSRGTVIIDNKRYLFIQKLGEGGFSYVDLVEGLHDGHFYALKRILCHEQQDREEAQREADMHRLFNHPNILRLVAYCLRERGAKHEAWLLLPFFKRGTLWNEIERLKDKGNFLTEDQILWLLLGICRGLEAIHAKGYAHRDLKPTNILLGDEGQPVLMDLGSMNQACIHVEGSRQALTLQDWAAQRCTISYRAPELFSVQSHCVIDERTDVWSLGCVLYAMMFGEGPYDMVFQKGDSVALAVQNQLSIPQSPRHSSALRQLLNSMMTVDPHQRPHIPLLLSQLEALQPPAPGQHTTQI
MEASURED_QUANTITY: IC50 (nM)
Numbers only, in nM.

Form field IC50 for item Cc1ccc(Nc2nccc(N(C)c3ccc4c(C)n(C)nc4c3)n2)cc1-c1nc2c(C(N)=O)cccc2[nH]1 on Serine/threonine-protein kinase 16 (Homo sapiens): 148

###

experiment: AUC (0 to t) in Sprague-Dawley rat at 10 mg/kg, po via gavage by LC-MS analysis; assay type: ADME, organism-based; set-up: dose 10 mg/kg, route po; conditions: in vivo
MEASURED_QUANTITY: AUC(0-t) (ng·h/mL)
Give bare numbers, in ng·h/mL.

// recorded AUC(0-t) for Cc1ccc(Nc2nccc(N(C)c3ccc4c(C)n(C)nc4c3)n2)cc1-c1nc2c(C(N)=O)cccc2[nH]1 : 4900
